Values were extracted from patent US10717716B2.

molecular target: human recombinant HDAC6 (Homo sapiens); construct: purchased Calbiochem 382180; test: HDAC6 enzyme activity inhibition assay (HDAC Fluorimetric Drug Discovery Kit); assay type: biochemical; conditions: human recombinant HDAC6, same protocol as HDAC1; read-out: HDAC6
Sequence (Q9UBN7 whole entry): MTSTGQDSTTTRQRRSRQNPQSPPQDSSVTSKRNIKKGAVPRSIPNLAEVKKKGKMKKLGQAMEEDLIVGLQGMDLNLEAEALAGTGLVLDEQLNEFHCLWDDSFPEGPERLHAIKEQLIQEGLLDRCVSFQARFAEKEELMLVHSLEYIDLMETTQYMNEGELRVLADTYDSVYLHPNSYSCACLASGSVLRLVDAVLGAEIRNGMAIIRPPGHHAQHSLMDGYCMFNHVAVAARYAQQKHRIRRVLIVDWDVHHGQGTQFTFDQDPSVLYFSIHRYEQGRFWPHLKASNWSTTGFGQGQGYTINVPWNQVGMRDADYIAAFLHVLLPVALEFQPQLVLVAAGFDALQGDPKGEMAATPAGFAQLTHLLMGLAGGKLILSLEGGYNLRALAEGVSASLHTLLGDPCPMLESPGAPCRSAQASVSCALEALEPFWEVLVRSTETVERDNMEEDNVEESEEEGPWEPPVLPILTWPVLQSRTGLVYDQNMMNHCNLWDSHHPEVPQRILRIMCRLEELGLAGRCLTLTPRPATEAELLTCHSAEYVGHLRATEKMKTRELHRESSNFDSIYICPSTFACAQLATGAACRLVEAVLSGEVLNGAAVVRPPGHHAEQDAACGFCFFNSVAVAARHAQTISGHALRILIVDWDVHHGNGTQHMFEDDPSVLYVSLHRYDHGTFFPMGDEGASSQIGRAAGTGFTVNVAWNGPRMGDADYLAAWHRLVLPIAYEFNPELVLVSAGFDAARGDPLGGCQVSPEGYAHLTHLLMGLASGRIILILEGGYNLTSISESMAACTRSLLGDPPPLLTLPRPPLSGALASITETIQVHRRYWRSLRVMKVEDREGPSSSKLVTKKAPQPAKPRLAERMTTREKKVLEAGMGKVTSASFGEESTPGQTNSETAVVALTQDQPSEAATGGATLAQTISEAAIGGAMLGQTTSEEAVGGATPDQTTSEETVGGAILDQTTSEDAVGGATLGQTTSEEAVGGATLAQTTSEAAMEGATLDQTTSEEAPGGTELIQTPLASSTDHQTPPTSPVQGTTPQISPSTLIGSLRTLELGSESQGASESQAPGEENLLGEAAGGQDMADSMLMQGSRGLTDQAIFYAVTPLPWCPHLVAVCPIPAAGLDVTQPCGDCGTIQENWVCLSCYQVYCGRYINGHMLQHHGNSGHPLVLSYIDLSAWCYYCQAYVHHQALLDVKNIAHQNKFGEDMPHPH
pIC50: −log10 of the molar value.

[
  {
    "molecular.string": "CCN1CC2(CCN(C(=O)N(Cc3ccc(-c4nnc(C(F)(F)F)o4)cc3)c3ccccc3)CC2)C1",
    "pIC50": 7.17
  },
  {
    "molecular.string": "O=C(N1CCS(=O)(=O)CC1)N(Cc1ccc(-c2nnc(C(F)F)o2)cc1F)c1ccc(CN2CCC(F)(F)CC2)cc1",
    "pIC50": 6.63
  },
  {
    "molecular.string": "CC(C)(C)N1CCN(C(=O)N(Cc2ccc(-c3nnc(C(F)F)o3)cc2F)c2ccccc2)CC1",
    "pIC50": 7.30
  },
  {
    "molecular.string": "O=C(N1CCN(CCO)CC1)N(Cc1ccc(-c2nnc(C(F)F)o2)cc1F)c1ccc(F)c(Cl)c1",
    "pIC50": 7.47
  },
  {
    "molecular.string": "COc1cc(-c2nnc(C(F)(F)F)o2)ccc1CN(C(=O)N1CCOCC1)c1ccccc1",
    "pIC50": 4.97
  },
  {
    "molecular.string": "Cc1ccccc1N(Cc1ccc(-c2nnc(C(F)F)o2)cc1F)C(=O)N1CCN(C)CC1",
    "pIC50": 7.39
  },
  {
    "molecular.string": "CC(C)(F)CN1CCN(Cc2ccc(N(Cc3ccc(-c4nnc(C(F)F)o4)cc3F)C(=O)N3CCS(=O)(=O)CC3)cc2)CC1",
    "pIC50": 6.46
  },
  {
    "molecular.string": "Cn1ncc2ccc(N(Cc3ccc(-c4nnc(C(F)F)o4)cc3F)C(=O)N3CCOCC3)cc21",
    "pIC50": 7.55
  },
  {
    "molecular.string": "CC(=O)N1CCCN(CCNC(=O)N(Cc2ccc(-c3nnc(C(F)F)o3)cc2F)c2ccccc2)CC1",
    "pIC50": 6.93
  },
  {
    "molecular.string": "CC1(C)Cc2cccc(N(Cc3ccc(-c4nnc(C(F)F)o4)cc3F)C(=O)N3CCS(=O)(=O)CC3)c2O1",
    "pIC50": 5.88
  },
  {
    "molecular.string": "CCN1CCN(CCOc2ccc(N(Cc3ccc(-c4nnc(C(F)F)o4)cc3F)C(=O)N3CCS(=O)(=O)CC3)cc2)CC1",
    "pIC50": 6.77
  },
  {
    "molecular.string": "O=C(N1CCOCC1)N(Cc1ccc(-c2nnc(C(F)(F)F)o2)c(F)c1)c1ccccc1",
    "pIC50": 6.72
  },
  {
    "molecular.string": "CCN1CCN(C(=O)N(Cc2ccc(-c3nnc(C(F)F)o3)cc2F)c2cccc(F)c2)CC1",
    "pIC50": 7.48
  },
  {
    "molecular.string": "O=C(N1CCS(=O)(=O)CC1)N(Cc1ccc(-c2nnc(C(F)(F)F)o2)cc1)C1CCCC1",
    "pIC50": 5.96
  },
  {
    "molecular.string": "COc1ccccc1N(Cc1ccc(-c2nnc(C(F)(F)F)o2)cc1)C(=O)N1CCS(=O)(=O)CC1",
    "pIC50": 6.57
  },
  {
    "molecular.string": "CC(=O)N1CCCN(C(=O)N(Cc2ccc(-c3nnc(C(F)(F)F)o3)cc2)c2ccccc2)CC1",
    "pIC50": 6.98
  },
  {
    "molecular.string": "O=C(N1CCOCC1)N(Cc1ccc(-c2nnc(C(F)F)o2)cc1F)c1cccc(F)c1",
    "pIC50": 7.49
  },
  {
    "molecular.string": "O=C(N1CCOCC1)N(Cc1ccc(-c2nnc(C(F)F)o2)nc1)c1ccc(F)c(Cl)c1",
    "pIC50": 6.94
  },
  {
    "molecular.string": "O=C(N1CCS(=O)(=O)CC1)N(Cc1ccc(-c2nnc(C(F)F)o2)cc1F)c1ccc2c(c1)CCO2",
    "pIC50": 7.47
  },
  {
    "molecular.string": "O=C(N1CCS(=O)(=O)CC1)N(Cc1ccc(-c2nnc(C(F)F)o2)cn1)c1ccc(-c2cccnc2)cc1",
    "pIC50": 7.51
  },
  {
    "molecular.string": "C[C@@H]1CN(C(=O)N(Cc2ccc(-c3nnc(C(F)(F)F)o3)cc2)c2ccccc2)C[C@H](C)N1Cc1ccccc1",
    "pIC50": 6.35
  },
  {
    "molecular.string": "O=C(N1CCS(=O)(=O)CC1)N(Cc1ccc(-c2nnc(C(F)(F)F)o2)cc1)c1ccc(Cl)cc1",
    "pIC50": 6.75
  },
  {
    "molecular.string": "CN(C)[C@@H]1CCN(C(=O)N(Cc2ccc(-c3nnc(C(F)F)o3)cc2F)c2ccc(F)cc2Cl)C1",
    "pIC50": 7.34
  },
  {
    "molecular.string": "O=C(N1CCCCC1)N(Cc1ccc(-c2nnc(C(F)(F)F)o2)cc1)c1ccccc1",
    "pIC50": 6.58
  },
  {
    "molecular.string": "O=C(N1CCOCC1)N(Cc1ccc(-c2nnc(C(F)(F)F)o2)cc1F)c1ccc(F)cc1",
    "pIC50": 6.73
  },
  {
    "molecular.string": "O=C(N1CCOCC1)N(Cc1ccc(-c2nnc(C(F)(F)F)o2)cc1Cl)c1ccccc1",
    "pIC50": 5.68
  },
  {
    "molecular.string": "O=C(N1CCS(=O)(=O)CC1)N(Cc1ccc(-c2nnc(C(F)(F)F)o2)cc1F)c1ccc(CN2CCN(C3COC3)CC2)cc1",
    "pIC50": 6.61
  },
  {
    "molecular.string": "CN1CCN(C(=O)N(Cc2ccc(-c3nnc(C(F)F)o3)cc2F)c2ccc3cnn(C)c3c2)CC1",
    "pIC50": 7.92
  },
  {
    "molecular.string": "O=C(NC1CCC1)N(Cc1ccc(-c2nnc(C(F)(F)F)o2)cc1)c1ccccc1",
    "pIC50": 6.08
  }
]
